Value source: the supplement of paper PMC12669032

Tested on: Escherichia coli IAI1
PROCEDURE SUMMARY: growth AUC relative to DMSO control (median of replicates) (fraction); higher = more growth (less inhibition), active = hit call of the paper
CONDITION DETAILS: 20 µM; 24 h
Rule: growth AUC under 1 gives n, otherwise y.

Can COCCN(C(=O)CO)c1c(C)cccc1C(=O)O be said to have growth AUC at or above 1? n

Here is the next compound: CC(C)N(C(=O)C(=O)O)c1ccccc1 y

---

System: Bacteroides thetaiotaomicron
PROCEDURE SUMMARY: growth AUC relative to DMSO control (median of replicates) (fraction); higher = more growth (less inhibition), active = hit call of the paper
CONDITION DETAILS: 20 µM; 24 h
Please provide measured growth AUC for the entries that follow.
Answers are plain numbers.

The following compounds have reported results that may help.
In [3]: df
Out[3]:
                                   compound                assayed_system  reported_measurement
0  CCOC(=O)c1nc(C(Cl)(Cl)Cl)n(-c2ccc(Cl)cc2Cl)n1  Bacteroides thetaiotaomicron                 0.966
1                CCCCOC(=O)COc1ccc(Cl)cc1Cl  Bacteroides thetaiotaomicron                 0.987
2  CC1=C(c2ccccc2)C(=O)N(C(C)(C)c2cc(Cl)cc(Cl)c2)CO1  Bacteroides thetaiotaomicron                  0.93

The following compounds each have a reported value; give each one's growth AUC.
1. Oc1cccc2ccccc12
2. Clc1ccc(C(c2ccccc2Cl)C(Cl)Cl)cc1 (stereo unspecified)
3. CNC(=O)/C(=N/OC)c1ccccc1COc1cc(C(=O)O)ccc1C

0.993
0.988
0.998
